# test.target: T1, Homer1c, full-length, recombinant (UniProt Q9Z214 1-366)
# T1 sequence (looked up): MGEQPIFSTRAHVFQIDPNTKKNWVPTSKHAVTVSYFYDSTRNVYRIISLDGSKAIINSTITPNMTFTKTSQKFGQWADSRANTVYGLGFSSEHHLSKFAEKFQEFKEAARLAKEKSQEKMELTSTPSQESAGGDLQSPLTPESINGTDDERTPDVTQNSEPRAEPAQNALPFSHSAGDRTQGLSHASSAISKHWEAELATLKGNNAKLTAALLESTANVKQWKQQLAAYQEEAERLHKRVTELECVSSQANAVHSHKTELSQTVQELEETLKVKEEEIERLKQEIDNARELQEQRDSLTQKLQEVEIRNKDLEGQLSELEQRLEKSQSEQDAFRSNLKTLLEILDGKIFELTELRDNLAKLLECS
# method.notes: ITC
Non-standard residues stand in square brackets, D forms with d. No end group written: not given here. pS = N[C@@H](COP(=O)(O)O)C(=O)O
assay.readout: pKd
Give bare numbers, as −log10 of the molar value.

Please look up its pKd: KELVALTPP[pS]PFRD [mGluR5 peptide spanning the Homer/Pin1 binding site, bacterially expressed, phosphorylated at S1126]
5.72
